test system: HepG2; experiment: GSK_TCMDC: Percent inhibition of human HepG2 cell line. Test compounds present at 10uM.; format: functional
QUANTITY MEASURED: Inhibition (%)
Expressed in %, but write only the number.

Task item: Find the recorded Inhibition belonging to "Cc1cc(Br)cnc1CCCCNc1cc(=O)c2ccccc2[nH]1.Cl" and report it.
Reply: 0

Task item: Find the recorded Inhibition belonging to "Clc1cc(Nc2ncnc3sc(C#C[C@H]4CCCN4)cc23)ccc1OCc1cccnc1Cl.O=C(O)C(F)(F)F" and report it.
Reply: 9

Task item: Find the recorded Inhibition belonging to "CC(C)CN1CCCN(Cc2cccc(NC(=O)c3ccc(-c4ccccc4)cc3)c2)CC1.O=C(O)C(F)(F)F" and report it.
Reply: 30

Task item: Find the recorded Inhibition belonging to "O=C(Nc1ccc(-c2ccccc2)cc1)Nc1cccc(Cn2nc(Cl)c(N3CCCNCC3)cc2=O)c1.O=C(O)C(F)(F)F" and report it.
Reply: 13

###

Would you mind telling me the reported Inhibition of each entry?
system: Plasmodium falciparum; assay: GSK_TCMDC: Inhibition of Plasmodium falciparum Dd2 in whole red blood cells, using parasite LDH activity as an index of growth. Test compounds present at 2uM; type: functional
Expressed in %, but write only the number.

Task item: Find the recorded Inhibition belonging to "COc1cc(NC(=O)Nc2ccc([N+](=O)[O-])cc2OC)c(OC)cc1Cl" and report it.
Reply: 6

Task item: Find the recorded Inhibition belonging to "O=C(Nc1ccc(F)c(F)c1)c1ccc(CN2CCCN(Cc3cccc(O)c3)CC2)cc1.O=C(O)C(F)(F)F" and report it.
Reply: 57

Task item: Find the recorded Inhibition belonging to "COCCCNc1nc2cc(OC)c(OC)cc2c2nc(-c3ccccc3)nn12" and report it.
Reply: 97

Task item: Find the recorded Inhibition belonging to "Cc1c(NC(=O)COc2ccc(Cl)cc2C(=O)c2cc(F)cc(C(F)(F)F)c2)ccc2ncsc12" and report it.
Reply: 18

Task item: Find the recorded Inhibition belonging to "CN(CCN)Cc1ccc(-c2ccc(-c3nc4cc(C(F)(F)F)ccc4[nH]3)s2)cc1.O=C(O)C(F)(F)F" and report it.
Reply: 98

###

tested on: Plasmodium falciparum; test: GSK_TCMDC: Inhibition of Plasmodium falciparum 3D7 in whole red blood cells, using parasite LDH activity as an index of growth. Test compounds present at 2uM; assay type: functional
QUANTITY MEASURED: Inhibition (%)
Expressed in %, but write only the number.

Task item: Find the recorded Inhibition belonging to "Oc1cc(Nc2ccnc3cc(I)ccc23)ccc1F" and report it.
Reply: 99

Task item: Find the recorded Inhibition belonging to "COc1cc(Cc2cnc(N)nc2N)cc(OCC(C)(C)C(=O)O)c1OC" and report it.
Reply: 89

Task item: Find the recorded Inhibition belonging to "CCOc1c(CNCCCNc2nc3ccccc3[nH]2)cc(Br)cc1OC.Cl" and report it.
Reply: 99

Task item: Find the recorded Inhibition belonging to "O=C(/C=C/c1cc([N+](=O)[O-])ccc1Cl)N1CCC(CCN2CCC(c3c[nH]c4ccccc34)CC2)CC1" and report it.
Reply: 92

Task item: Find the recorded Inhibition belonging to "O=C(Nc1ccc(N2CCN(Cc3ccccc3)CC2)cc1)c1cccs1.O=C(O)C(F)(F)F" and report it.
Reply: 87

###

Would you mind telling me the reported Inhibition of each entry?
test system: HepG2; experiment: GSK_TCMDC: Percent inhibition of human HepG2 cell line. Test compounds present at 10uM.; format: functional
Expressed in %, but write only the number.

Task item: Form field: Inhibition recorded for "COc1ccc(CNC2CCN(C)CC2)cc1-c1ccc(S(=O)(=O)NCc2cccnc2)s1.O=C(O)C(F)(F)F" with HepG2 (enter value)
Reply: 10

Task item: Form field: Inhibition recorded for "O=C(Nc1ccc(-n2ccc(C(F)(F)F)n2)cc1)c1cccs1" with HepG2 (enter value)
Reply: 6

Task item: Form field: Inhibition recorded for COCCn1c(C)cc(C(=O)CN2C(=O)NC(C)(c3ccc(C(C)(C)C)cc3)C2=O)c1C (stereo not given) with HepG2 (enter value)
Reply: 7

Task item: Form field: Inhibition recorded for O=C(Nc1cccc(F)c1)NC1CCN(c2ccnc3cc(Cl)ccc23)C1.O=C(O)C(F)(F)F (stereo not given) with HepG2 (enter value)
Reply: 13

Task item: Form field: Inhibition recorded for "O=C(NCCN1CCC(c2ncc(-c3ccccc3)o2)CC1)c1ccc(NC(=O)c2ccc(Cl)cc2)cc1" with HepG2 (enter value)
Reply: 32

Data origin, for the record: ChEMBL document CHEMBL1157539
